Assay: Cytotoxicity against human MCF7 cells assessed as growth inhibition at 10 uM after 72 hrs by MTT assay
Format: cell-based
Classification field: enter 1.0 for inhibition at 72 h, 10 µM values not below 10%, 0.0 for values below it.

Query string: I'd appreciate it if you could say whether COC1=Cc2cccc3ccc(-c4ccc(OC)cc4)c(c23)C1=O has inhibition at 72 h, 10 µM at least equal to 10%.
Result string: 1.0

Query string: I'd appreciate it if you could say whether O=C1C=Cc2cccc3ccc(-c4cccs4)c1c23 has inhibition at 72 h, 10 µM at least equal to 10%.
Result string: 0.0

Query string: I'd appreciate it if you could say whether COC1c2cccc3ccc(-c4ccccc4)c(c23)C(=O)C1O (centres undefined) has inhibition at 72 h, 10 µM at least equal to 10%.
Result string: 1.0

Query string: I'd appreciate it if you could say whether N#Cc1ccc2cccc3c2c1C(=O)C=C3 has inhibition at 72 h, 10 µM at least equal to 10%.
Result string: 1.0

Query string: I'd appreciate it if you could say whether COC1=Cc2cccc3ccc(-c4ccccc4)c(c23)C1=O has inhibition at 72 h, 10 µM at least equal to 10%.
Result string: 1.0

Query string: I'd appreciate it if you could say whether O=C1C=Cc2cccc3ccc(-c4ccccc4)c1c23 has inhibition at 72 h, 10 µM at least equal to 10%.
Result string: 0.0

Query string: I'd appreciate it if you could say whether O=C1C(O)=Cc2cccc3ccc(-c4ccccc4)c1c23 has inhibition at 72 h, 10 µM at least equal to 10%.
Result string: 1.0

Query string: I'd appreciate it if you could say whether Cc1cccc(C)c1-c1ccc2cccc3c2c1C(=O)C=C3 has inhibition at 72 h, 10 µM at least equal to 10%.
Result string: 0.0

Query string: I'd appreciate it if you could say whether O=C1C(O)=Cc2c(-c3ccccc3)ccc3cccc1c23 has inhibition at 72 h, 10 µM at least equal to 10%.
Result string: 1.0

Query string: I'd appreciate it if you could say whether OC1(c2ccccn2)C=Cc2cccc3ccc(-c4ccccn4)c1c23 (centres undefined) has inhibition at 72 h, 10 µM at least equal to 10%.
Result string: 0.0

Query string: I'd appreciate it if you could say whether COc1ccc(-c2ccc3cccc4c3c2C=CC4=O)cc1 has inhibition at 72 h, 10 µM at least equal to 10%.
Result string: 1.0

Query string: I'd appreciate it if you could say whether O=C1C(O)=Cc2cccc3ccc(-c4ccc(O)cc4)c1c23 has inhibition at 72 h, 10 µM at least equal to 10%.
Result string: 1.0

Query string: I'd appreciate it if you could say whether COc1ccc(-c2ccc3cccc4c3c2C(=O)C(O)=C4)cc1 has inhibition at 72 h, 10 µM at least equal to 10%.
Result string: 1.0

Query string: I'd appreciate it if you could say whether O=C1C=Cc2cccc3cccc1c23 has inhibition at 72 h, 10 µM at least equal to 10%.
Result string: 0.0

Query string: I'd appreciate it if you could say whether COc1ccc(-c2ccc3cccc4c3c2C(=O)C=C4)cc1 has inhibition at 72 h, 10 µM at least equal to 10%.
Result string: 1.0

Query string: I'd appreciate it if you could say whether O=C1C=Cc2cccc3ccc(-c4ccco4)c1c23 has inhibition at 72 h, 10 µM at least equal to 10%.
Result string: 1.0

Query string: I'd appreciate it if you could say whether COc1ccc(C2=CC(=O)c3cccc4cccc2c34)cc1 has inhibition at 72 h, 10 µM at least equal to 10%.
Result string: 0.0

Query string: I'd appreciate it if you could say whether O=C1C(O)=Cc2c(-c3ccc(O)cc3)ccc3cccc1c23 has inhibition at 72 h, 10 µM at least equal to 10%.
Result string: 1.0

Query string: I'd appreciate it if you could say whether O=C1C=Cc2cccc3ccc(-c4ccccn4)c1c23 has inhibition at 72 h, 10 µM at least equal to 10%.
Result string: 0.0

Taken from ChEMBL document CHEMBL1165954.
